# Tested on: Liver
# Method: AUC (0 to t) in Sprague-Dawley rat liver assessed as 2'-C-methyl guanosine triphosphate level at 10 mg/kg, po up to 24 hrs by LC-MS/Ms analysis
# Assay type: ADME, organism-based
# Set-up: dose 10 mg/kg, route oral
# Experimental setup: in vivo
Below: a set of entries, each annotated with reported AUCt.

{"Compound": "COc1nc(N)nc2c1ncn2[C@@H]1O[C@H](COP(=O)(N[C@@H](C)C(=O)OC2CCCC2)N[C@@H](C)C(=O)OC2CCCC2)[C@@H](O)[C@@]1(C)O (mixture of isomers)", "AUCt, ng·h/g": 24546}
{"Compound": "CCC(C)OC(=O)[C@H](C)NP(=O)(N[C@@H](C)C(=O)OC(C)CC)OC[C@H]1O[C@@H](n2cnc3c(OC)nc(N)nc32)[C@](C)(O)[C@@H]1O (mixture of isomers)", "AUCt, ng·h/g": 16252}
{"Compound": "COc1nc(N)nc2c1ncn2[C@@H]1O[C@H](COP(=O)(N[C@@H](C)C(=O)OCC(C)(C)C)N[C@@H](C)C(=O)OCC(C)(C)C)[C@@H](O)[C@@]1(C)O (mixture of isomers)", "AUCt, ng·h/g": 25147}
{"Compound": "COc1nc(N)nc2c1ncn2[C@@H]1O[C@H](COP(=O)(N[C@@H](C)C(=O)OCC(C)(C)C)Oc2cccc3ccccc23)[C@@H](O)[C@@]1(C)O (stereo partly specified)", "AUCt, ng·h/g": 24557}
{"Compound": "CCCCOC(=O)[C@H](C)NP(=O)(N[C@@H](C)C(=O)OCCCC)OC[C@H]1O[C@@H](n2cnc3c(OC)nc(N)nc32)[C@](C)(O)[C@@H]1O (mixture of isomers)", "AUCt, ng·h/g": 27671}
{"Compound": "COc1nc(N)nc2c1ncn2[C@@H]1O[C@H](COP(=O)(N[C@H](C)C(=O)OCC(C)(C)C)N[C@H](C)C(=O)OCC(C)(C)C)[C@@H](O)[C@@]1(C)O (mixture of isomers)", "AUCt, ng·h/g": 11608}

---

# System: Hepatitis C virus
# Method: Antiviral activity against Hepatitis C virus subtype 1b Con1 infected in human Huh7 cells assessed as inhibition of HCV replicon-encoded Renilla luciferase reporter activity after 72 hrs by HCV replicon assay
# Type: functional, organism-based, Hepacivirus hominis
# Experimental setup: Con1, Huh-7, 72 h
Below: a set of entries, each annotated with reported log10 of EC90.
Endpoint: log10 of EC90 (log10 of the value in nM)

{"Molecule": "COc1nc(N)nc2c1ncn2[C@@H]1O[C@H](COP(=O)(N[C@@H](C)C(=O)OCC(C)(C)C)N[C@@H](C)C(=O)OC2CCCCC2)[C@@H](O)[C@@]1(C)O (mixture of isomers)", "Assay result": 2.18}
{"Molecule": "CCOc1nc(N)nc2c1ncn2[C@@H]1O[C@H](CO)[C@@H](O)[C@@]1(C)O", "Assay result": 4.39}
{"Molecule": "CCOc1nc(N)nc2c1ncn2[C@@H]1O[C@H](COP(=O)(N[C@@H](C)C(=O)OCc2ccccc2)N[C@@H](C)C(=O)OCc2ccccc2)[C@@H](O)[C@@]1(C)O (mixture of isomers)", "Assay result": 3.00}
{"Molecule": "COc1nc(N)nc2c1ncn2[C@@H]1O[C@H](COP(=O)(N[C@@H](C)C(=O)OCC(C)(C)C)N[C@@H](C)C(=O)OCC(C)(C)C)[C@@H](O)[C@@]1(C)O (mixture of isomers)", "Assay result": 2.30}
{"Molecule": "COc1nc(N)nc2c1ncn2[C@@H]1O[C@H](COP(=O)(N[C@@H](C)C(=O)OC2CCCCO2)N[C@@H](C)C(=O)OC2CCCCO2)[C@@H](O)[C@@]1(C)O (mixture of isomers)", "Assay result": 4.47}
{"Molecule": "COc1nc(N)nc2c1ncn2[C@@H]1O[C@H](COP(=O)(NCc2ccccc2)N[C@@H](C)C(=O)OCC(C)(C)C)[C@@H](O)[C@@]1(C)O (mixture of isomers)", "Assay result": 3.28}
{"Molecule": "COc1nc(N)nc2c1ncn2[C@@H]1O[C@H](COP(=O)(N[C@@H](CC(C)C)C(=O)OC2CCCCC2)N[C@@H](CC(C)C)C(=O)OC2CCCCC2)[C@@H](O)[C@@]1(C)O (mixture of isomers)", "Assay result": 3.30}
{"Molecule": "COc1nc(N)nc2c1ncn2[C@@H]1O[C@H](COP(=O)(N[C@@H](C)C(=O)OC2CCCC2)N[C@@H](C)C(=O)OC2CCCC2)[C@@H](O)[C@@]1(C)O (mixture of isomers)", "Assay result": 2.34}
{"Molecule": "COc1nc(N)nc2c1ncn2[C@@H]1O[C@H](COP(=O)(N[C@@H](C)C(=O)OC2Cc3ccccc3C2)N[C@@H](C)C(=O)OC2Cc3ccccc3C2)[C@@H](O)[C@@]1(C)O (mixture of isomers)", "Assay result": 3.11}
{"Molecule": "COc1nc(N)nc2c1ncn2[C@@H]1O[C@H](COP(=O)(N[C@@H](C)C(=O)OC2CCCCC2)N[C@@H](C)C(=O)OC2CCCCC2)[C@@H](O)[C@@]1(C)O (mixture of isomers)", "Assay result": 2.28}

---

Below: a set of entries, each annotated with reported AUCt.
# Tested on: Liver
# Method: AUC (0 to t) in Sprague-Dawley rat liver assessed as 2'-C-methyl guanosine triphosphate level at 10 mg/kg, po up to 24 hrs by LC-MS/Ms analysis
# Format: ADME, organism-based
# Design: dose 10 mg/kg, route oral
# Experimental setup: in vivo
Endpoint: AUCt (ng·h/g)

{"Compound": "CCCCCOC(=O)[C@H](C)NP(=O)(N[C@@H](C)C(=O)OCCCCC)OC[C@H]1O[C@@H](n2cnc3c(OC)nc(N)nc32)[C@](C)(O)[C@@H]1O (mixture of isomers)", "Reading unit": "ng·h/g", "Assay result": 18600}
{"Compound": "COc1nc(N)nc2c1ncn2[C@@H]1O[C@H](COP(=O)(N[C@H](C(=O)OCc2ccccc2)C(C)C)N[C@H](C(=O)OCc2ccccc2)C(C)C)[C@@H](O)[C@@]1(C)O (mixture of isomers)", "Reading unit": "ng·h/g", "Assay result": 4478}
{"Compound": "COc1nc(N)nc2c1ncn2[C@@H]1O[C@H](COP(=O)(N[C@@H](C)C(=O)OC2Cc3ccccc3C2)N[C@@H](C)C(=O)OC2Cc3ccccc3C2)[C@@H](O)[C@@]1(C)O (mixture of isomers)", "Reading unit": "ng·h/g", "Assay result": 10642}

---

# Method: Cytotoxicity against human HuH7 cells after 3 days
# Format: cell-based, Huh-7

{"Compound": "COc1nc(N)nc2c1ncn2[C@@H]1O[C@H](CO)[C@@H](O)[C@@]1(C)O", "CC50 at 72 h": "> 100 µM"}
{"Compound": "COc1nc(N)nc2c1ncn2[C@@H]1O[C@H](COP(=O)(NCCC(=O)OCc2ccccc2)NCCC(=O)OCc2ccccc2)[C@@H](O)[C@@]1(C)O (mixture of isomers)", "CC50 at 72 h": "> 100 µM"}
{"Compound": "COc1nc(N)nc2c1ncn2[C@@H]1O[C@H](COP(=O)(N[C@@H](CCSC)C(=O)OCC(C)(C)C)N[C@@H](CCSC)C(=O)OCC(C)(C)C)[C@@H](O)[C@@]1(C)O (mixture of isomers)", "CC50 at 72 h": "> 100 µM"}
{"Compound": "CCCCOC(=O)[C@H](C)NP(=O)(N[C@@H](C)C(=O)OCCCC)OC[C@H]1O[C@@H](n2cnc3c(OC)nc(N)nc32)[C@](C)(O)[C@@H]1O (mixture of isomers)", "CC50 at 72 h": "> 100 µM"}
{"Compound": "COc1nc(N)nc2c1ncn2[C@@H]1O[C@H](COP(=O)(N[C@@H](C)C(=O)OCCC(C)(C)C)N[C@@H](C)C(=O)OCCC(C)(C)C)[C@@H](O)[C@@]1(C)O (mixture of isomers)", "CC50 at 72 h": "71 µM"}

---

# Method: Cytotoxicity against human HuH7 cells after 3 days
# Assay type: cell-based, Huh-7
Below: a set of entries, each annotated with reported CC50 at 72 h.

{"Compound": "COC(=O)[C@@H](NP(=O)(N[C@@H](C)C(=O)OCC(C)(C)C)OC[C@H]1O[C@@H](n2cnc3c(OC)nc(N)nc32)[C@](C)(O)[C@@H]1O)C(C)C (mixture of isomers)", "Comparative sign": ">", "CC50 at 72 h (µM)": 100}
{"Compound": "COc1nc(N)nc2c1ncn2[C@@H]1O[C@H](COP(=O)(NCc2ccccc2)N[C@@H](C)C(=O)OCC(C)(C)C)[C@@H](O)[C@@]1(C)O (mixture of isomers)", "Comparative sign": ">", "CC50 at 72 h (µM)": 100}
{"Compound": "COc1nc(N)nc2c1ncn2[C@@H]1O[C@H](COP(=O)(N[C@@H](C)C(=O)OCc2ccc(F)cc2F)N[C@@H](C)C(=O)OCc2ccc(F)cc2F)[C@@H](O)[C@@]1(C)O (mixture of isomers)", "Comparative sign": "=", "CC50 at 72 h (µM)": 54}
{"Compound": "CCOC(=O)[C@H](C)NP(=O)(N[C@@H](C)C(=O)OCC)OC[C@H]1O[C@@H](n2cnc3c(OC)nc(N)nc32)[C@](C)(O)[C@@H]1O (mixture of isomers)", "Comparative sign": ">", "CC50 at 72 h (µM)": 100}
{"Compound": "COc1nc(N)nc2c1ncn2[C@@H]1O[C@H](COP(=O)(N[C@@H](Cc2ccccc2)C(=O)OCc2ccccc2)N[C@@H](Cc2ccccc2)C(=O)OCc2ccccc2)[C@@H](O)[C@@]1(C)O (mixture of isomers)", "Comparative sign": "=", "CC50 at 72 h (µM)": 67}
{"Compound": "COc1nc(N)nc2c1ncn2[C@@H]1O[C@H](COP(=O)(N[C@@H](Cc2ccccc2)C(=O)OC2CCCCC2)N[C@@H](Cc2ccccc2)C(=O)OC2CCCCC2)[C@@H](O)[C@@]1(C)O (mixture of isomers)", "Comparative sign": "=", "CC50 at 72 h (µM)": 25}
{"Compound": "CCCCNP(=O)(NCCCC)OC[C@H]1O[C@@H](n2cnc3c(OC)nc(N)nc32)[C@](C)(O)[C@@H]1O (mixture of isomers)", "Comparative sign": ">", "CC50 at 72 h (µM)": 100}
{"Compound": "COc1nc(N)nc2c1ncn2[C@@H]1O[C@H](COP(=O)(N[C@@H](CC(C)C)C(=O)OC2CCCCC2)N[C@@H](CC(C)C)C(=O)OC2CCCCC2)[C@@H](O)[C@@]1(C)O (mixture of isomers)", "Comparative sign": "=", "CC50 at 72 h (µM)": 20}
{"Compound": "COC(=O)[C@H](Cc1ccc(OC(C)(C)C)cc1)NP(=O)(N[C@@H](Cc1ccc(OC(C)(C)C)cc1)C(=O)OC)OC[C@H]1O[C@@H](n2cnc3c(OC)nc(N)nc32)[C@](C)(O)[C@@H]1O (mixture of isomers)", "Comparative sign": "=", "CC50 at 72 h (µM)": 89}
{"Compound": "COc1nc(N)nc2c1ncn2[C@@H]1O[C@H](COP(=O)(NC2CC2)N[C@@H](C)C(=O)OCC(C)(C)C)[C@@H](O)[C@@]1(C)O (mixture of isomers)", "Comparative sign": ">", "CC50 at 72 h (µM)": 100}
